System: TE-1 (Esophageal Squamous Cell Carcinoma)
Experiment: combination Emax (second highest fraction inhibited in the dose matrix, 72 h); higher = more inhibition; extreme values may be limits of the assay
Outcome Measure: combination Emax
Please state the value as a number alone, without comment.

These recorded examples may help you get a feel for the data.
Cc1c2c(nn1C)CSCc1cc(n(C)n1)CSc1cc(c3ccccc3c1)OCCCc1c(C(=O)O)n(C)c3c-2c(Cl)ccc13 [AZD5991] + Cn1cnc2c(F)c(Nc3ccc(Br)cc3Cl)c(C(=O)NOCCO)cc21 [Selumetinib] (first compound max 1 µM, 7x7, partner max 3 µM)    0.655
Cc1c2c(nn1C)CSCc1cc(n(C)n1)CSc1cc(c3ccccc3c1)OCCCc1c(C(=O)O)n(C)c3c-2c(Cl)ccc13 [AZD5991] + C[C@@H]1COCCN1C2=NC(=NC(=C2)C3(CC3)[S@](=N)(=O)C)C4=C5C=CNC5=NC=C4 [AZD6738] (first compound max 1 µM, 7x7, partner max 10 µM)    0.747
Cc1c2c(nn1C)CSCc1cc(n(C)n1)CSc1cc(c3ccccc3c1)OCCCc1c(C(=O)O)n(C)c3c-2c(Cl)ccc13 [AZD5991] + CC1(C)CCC(CN2CCN(c3ccc(C(=O)NS(=O)(=O)c4ccc(NCC5CCOCC5)c([N+](=O)[O-])c4)c(Oc4cnc5[nH]ccc5c4)c3)CC2)=C(c2ccc(Cl)cc2)C1 [Venetoclax] (first compound max 1 µM, 7x7, partner max 1 µM)    0.65

Per the reported TE-1 (Esophageal Squamous Cell Carcinoma) data, CN(C)CCCOc1ccc(-c2ccc3ncc4c(c3c2)n(C2CCOCC2)c(=O)n4C)cn1 [AZD0156] + C=CCn1c(=O)c2cnc(Nc3ccc(N4CCN(C)CC4)cc3)nc2n1-c1cccc(C(C)(C)O)n1 [AZD1775] (first compound max 1 µM, partner max 1 µM) has combination Emax of 0.627

Per the reported TE-1 (Esophageal Squamous Cell Carcinoma) data, CS(=O)(=O)CCNCc1ccc(-c2ccc3ncnc(Nc4ccc(OCc5cccc(F)c5)c(Cl)c4)c3c2)o1 [Lapatinib] + C[C@@H](Oc1cc(-c2cnn(C3CCNCC3)c2)cnc1N)c1c(Cl)ccc(F)c1Cl [Crizotinib] (first compound max 10 µM, 7x7, partner max 10 µM) has combination Emax of 0.919

Per the reported TE-1 (Esophageal Squamous Cell Carcinoma) data, CN(C)CCCOc1ccc(-c2ccc3ncc4c(c3c2)n(C2CCOCC2)c(=O)n4C)cn1 [AZD0156] + CCN(CCO)CCCOc1ccc2c(Nc3cc(CC(=O)Nc4cccc(F)c4)[nH]n3)ncnc2c1 [AZD2811] (first compound max 1 µM, 7x7, partner max 1 µM) has combination Emax of 0.254

Per the reported TE-1 (Esophageal Squamous Cell Carcinoma) data, CCc1c2c(nc3ccc(O)cc13)-c1cc3c(c(=O)n1C2)COC(=O)[C@]3(O)CC [SN-38] + CN(C)CCCOc1ccc(-c2ccc3ncc4c(c3c2)n(C2CCOCC2)c(=O)n4C)cn1 [AZD0156] (first compound max 0.3 µM, 7x7, partner max 1 µM) has combination Emax of 0.522

* * *

# Bliss excess per entry
System: OVCAR-4 (Ovarian Carcinoma);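 note: after 72 h of two-drug dosing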
Experiment: Bliss excess, mean over the matrix (fraction); higher = more synergy
Please state the value as a number alone, without comment.

These recorded examples may help you get a feel for the data.
CC1(C)CCC(CN2CCN(c3ccc(C(=O)NS(=O)(=O)c4ccc(NCC5CCOCC5)c([N+](=O)[O-])c4)c(Oc4cnc5[nH]ccc5c4)c3)CC2)=C(c2ccc(Cl)cc2)C1 [Venetoclax] + CCN(CCO)CCCOc1ccc2c(Nc3cc(CC(=O)Nc4cccc(F)c4)[nH]n3)ncnc2c1 [AZD2811] (first compound max 1 µM, 7x7, partner max 1 µM)    0.0264
CC1(C)CCC(CN2CCN(c3ccc(C(=O)NS(=O)(=O)c4ccc(NCC5CCOCC5)c([N+](=O)[O-])c4)c(Oc4cnc5[nH]ccc5c4)c3)CC2)=C(c2ccc(Cl)cc2)C1 [Venetoclax] + COc1cc(Nc2ncc3c(n2)-c2ccc(Cl)cc2C(c2c(F)cccc2OC)=NC3)ccc1C(=O)O [Alisertib] (first compound max 1 µM, 7x7, partner max 10 µM)    -0.0215

# ---- query molecule ----
Per the reported OVCAR-4 (Ovarian Carcinoma) data, Cc1cc2ncnn2cc1Nc1ncc2c(n1)n(C1CCOCC1)c(=O)n2C [AZD7648] + C=CCn1c(=O)c2cnc(Nc3ccc(N4CCN(C)CC4)cc3)nc2n1-c1cccc(C(C)(C)O)n1 [AZD1775] (first compound max 10 µM, partner max 1 µM) has Bliss excess of -0.0108
